target: AT1 receptor (Homo sapiens (Human)); test: AT1 receptor binding inhibitory action
Sequence (P30556 whole entry): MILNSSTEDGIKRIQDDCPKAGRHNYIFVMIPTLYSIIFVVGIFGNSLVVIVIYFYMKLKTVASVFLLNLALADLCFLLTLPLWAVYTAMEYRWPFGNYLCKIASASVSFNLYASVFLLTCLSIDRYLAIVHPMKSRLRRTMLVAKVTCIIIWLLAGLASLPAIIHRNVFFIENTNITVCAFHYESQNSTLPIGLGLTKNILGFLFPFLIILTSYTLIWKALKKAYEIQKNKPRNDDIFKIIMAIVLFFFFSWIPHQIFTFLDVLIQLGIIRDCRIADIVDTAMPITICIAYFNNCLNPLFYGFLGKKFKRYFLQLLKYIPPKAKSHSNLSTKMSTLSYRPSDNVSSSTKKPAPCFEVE
Where a name gives a salt, the structure may show the parent alone.

{"Molecule": "CCc1cc2c(=O)n(CC(=O)C34CC5CC(CC(C5)C3)C4)c(=O)n(Cc3ccc(-c4ccccc4-c4noc(=O)[nH]4)cc3)c2s1 [Ex. 132]", "Value units": "nM", "IC50": 1.7}
{"Molecule": "CCc1cc2c(=O)n(CC(=O)c3ccc(Cl)s3)c(=O)n(Cc3ccc(-c4ccccc4-c4noc(=O)[nH]4)cc3)c2s1 [Ex. 150]", "Value units": "nM", "IC50": 1.5}
{"Molecule": "CCc1cc2c(=O)n(CC(=O)c3ccc(OC)cc3)c(=O)n(Cc3ccc(-c4ccccc4-c4noc(O)n4)cc3OC)c2s1 [Ex. 192, potassium salt]", "Value units": "nM", "IC50": 2.3}
{"Molecule": "CCCc1cc2c(=O)n(CC(=O)c3ccc(OC)cc3)c(=O)n(Cc3ccc(-c4ccccc4-c4noc(=O)[nH]4)cc3F)c2s1 [Ex. 158]", "Value units": "nM", "IC50": 1.7}
{"Molecule": "COc1cccc(C(=O)Cn2c(=O)c3cc(C4CC4)sc3n(Cc3ccc(-c4ccccc4-c4noc(O)n4)cc3)c2=O)c1 [Ex. 107, potassium salt]", "Value units": "nM", "IC50": 1.1}
{"Molecule": "CC(C)(C)C(=O)Cn1c(=O)c2cc(C3CC3)sc2n(Cc2ccc(-c3ccccc3-c3noc(=O)[nH]3)cc2)c1=O [Ex. 186]", "Value units": "nM", "IC50": 1.2}
{"Molecule": "CCc1cc2c(=O)n(CC(=O)c3ccccc3)c(=O)n(Cc3ccc(-c4ccccc4-c4noc(=O)[nH]4)cc3)c2s1 [Ex. 209]", "Value units": "nM", "IC50": 1.4}
{"Molecule": "O=C(Cn1c(=O)c2cc(CC(F)(F)F)sc2n(Cc2ccc(-c3ccccc3-c3noc(=O)[nH]3)cc2)c1=O)C1CCCCC1 [Ex. 136]", "Value units": "nM", "IC50": 1.5}
{"Molecule": "CC(C)(C)C(O)Cn1c(=O)c2cc(C3CC3)sc2n(Cc2ccc(-c3ccccc3-c3noc(=O)[nH]3)cc2)c1=O (stereo not shown) [Ex. 143]", "Value units": "nM", "IC50": 1.4}
{"Molecule": "CCc1cc2c(=O)n(CC(=O)c3ccc(OC)c(F)c3)c(=O)n(Cc3ccc(-c4ccccc4-c4noc(=O)[nH]4)cc3F)c2s1 [Ex. 157]", "Value units": "nM", "IC50": 1.4}
{"Molecule": "COc1ccccc1C(=O)Cn1c(=O)c2cc(CC(F)(F)F)sc2n(Cc2c(F)cc(-c3ccccc3-c3noc(O)n3)cc2F)c1=O [Ex. 127, potassium salt]", "Value units": "nM", "IC50": 1.4}
{"Molecule": "CCO/N=C(/Cn1c(=O)c2cc(CC)sc2n(Cc2ccc(-c3ccccc3-c3noc(=O)[nH]3)cc2)c1=O)c1ccc(OC)cc1 [Ex. 210]", "Value units": "nM", "IC50": 1.6}
{"Molecule": "CCc1cc2c(=O)n(CC3(O)CCOCC3)c(=O)n(Cc3ccc(-c4ccccc4-c4noc(=O)[nH]4)cc3)c2s1 [Ex. 145]", "Value units": "nM", "IC50": 1.7}
